molecular target: Solute carrier family 2, facilitated glucose transporter member 1 (Homo sapiens) (UniProt P11166); assay: ST_JUDE_LEISH: Cytotoxicity at 2uM final concentration against transgenic Leishmania Mexicana promastigotes LmGLUT1 that are glucose transport deficient and complemented with the human glucose transporter GLUT1. Activity is measured by DNA content using SYBR green in vitro; format: functional
Sequence (P11166 whole entry): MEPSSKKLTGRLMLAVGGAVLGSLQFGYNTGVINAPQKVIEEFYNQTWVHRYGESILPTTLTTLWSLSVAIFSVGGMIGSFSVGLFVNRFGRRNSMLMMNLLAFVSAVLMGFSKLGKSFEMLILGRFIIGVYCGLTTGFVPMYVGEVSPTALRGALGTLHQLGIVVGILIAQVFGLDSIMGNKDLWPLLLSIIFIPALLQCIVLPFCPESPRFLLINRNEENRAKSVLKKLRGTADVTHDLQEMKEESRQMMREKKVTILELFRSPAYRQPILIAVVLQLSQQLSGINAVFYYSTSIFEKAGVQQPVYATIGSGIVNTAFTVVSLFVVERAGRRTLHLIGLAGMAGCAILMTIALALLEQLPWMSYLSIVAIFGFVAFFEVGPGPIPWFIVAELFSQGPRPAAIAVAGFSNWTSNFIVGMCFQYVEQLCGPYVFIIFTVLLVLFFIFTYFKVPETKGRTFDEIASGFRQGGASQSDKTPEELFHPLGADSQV
measuredMetric: inhibition (%)
The figure you give is taken to be in %; do not add the unit.

These solved cases illustrate the format of a correct answer.
• COc1cccc(-c2csc(C(=O)NCC3CCN(Cc4ccc(C(C)C)cc4)C3)c2)c1 (centres undefined) = -0.64
• Cc1cc(C(=O)Nc2ccc3c(c2)CCN3C2CCN(Cc3ccc(O)cc3)C2)no1 (centres undefined) = 4.29
• COc1ccc(NC(=O)CSc2nc(-c3ccccc3Cl)ns2)cc1OC = -0.51
• CN(C)Cc1ccc(-c2cccc(Nc3nccc(NCC(O)c4ccccc4)n3)c2)cc1 (centres undefined) = 0.75
• CC(C)(C)c1cc(C(=O)N2CCN(c3ncccc3C(F)(F)F)CC2)n(Cc2ccccc2)n1 = 5.66

Just so you know, measured inhibition for `CCn1c(-c2nonc2N)nc2c(-c3cccc(Cl)c3)ncc(OCCCNCc3cnc(C)nc3N)c21` came out at 0.16

Just so you know, measured inhibition for `O=C(Nc1cccc(-c2ccc(-c3nc4cc(F)ccc4[nH]3)s2)c1)c1ccncc1` came out at 6.59

Just so you know, measured inhibition for `Cc1cc(C(=O)Nc2ccc(OCc3ccccc3)cc2)on1` came out at -1.56

====

target: Hexose transporter 1 (Plasmodium falciparum) (UniProt O97467); assay: ST_JUDE_LEISH: Cytotoxicity at 2uM final concentration against transgenic Leishmania Mexicana promastigotes LmPfHT that are glucose transport deficient and complemented with the Plasmodium falciparum hexose transporter. Activity is measured by DNA content using SYBR green in vitro; format: functional
measuredMetric: inhibition
Note: a bare number is incomplete; add the unit.

* Cc1[nH]c2ccccc2c1CC1CCN(CC2CCN(C(=O)/C=C/c3ccc(Cl)c(Cl)c3)CC2)CC1 | 1.33%
* O=C(NCc1cccs1)[C@H](Cc1ccccc1)Nc1ccnc(NCC2CCCCC2)n1 | 10.5%
* CCCCCCN1CCCN(Cc2ccc(C(=O)Nc3ccc(CC)cc3)cc2)CC1 | 10.9%
* Cn1cncc1-c1ccc2ncnc(Nc3ccc4c(cnn4Cc4ccccc4)c3)c2c1 | 2.21%

// next entry
Just so you know, measured inhibition for `Cc1cc2ncn(-c3nccc(NCc4ccc(F)cc4)n3)c2cc1C` came out at -1.37%

====

Overview of reported inhibition across a group of compounds:
biological target: Glucose transporter (Leishmania mexicana) (UniProt O61059); experiment: ST_JUDE_LEISH: Cytotoxicity at 2uM final concentration against transgenic Leishmania Mexicana promastigotes LmGT2 that are glucose transport deficient and complemented with the L. Mexicana glucose transporter 2. Activity is measured by DNA content using SYBR green in vitro; format: functional
The figure you give is taken to be in %; do not add the unit.

These solved cases illustrate the format of a correct answer.
* Cc1c(N=O)cc(C(C)(C)C)c(O)c1C(=O)Nc1ccc([N+](=O)[O-])cc1Cl | -0.56
* O=C(O)C[C@H](NC(=O)[C@@H]1CCCN1C(=O)c1cccc(-c2ccc(Cl)c(Cl)c2)c1)C(=O)O | 1.61
* CC(=O)N(C)/N=C/[C@H](CCc1ccccc1)NC(=O)[C@H](CC(C)C)NC(=O)c1cccc(OCCN2CCOCC2)c1 | 8.5

Just so you know, measured inhibition for CCCCNC(=O)C(C)NC(=O)c1ccc(O)c(-c2ccc(Cl)c(Cl)c2)c1 (centres undefined) came out at 0.05

Just so you know, measured inhibition for COc1ccc(OC)c2c1CC1NCC2c2c(OC)ccc(OC)c21 (centres undefined) came out at 0.54

Just so you know, measured inhibition for `Cc1cccc2nc(-c3ccc(-c4ccc(CNCc5cccc(N)c5)cc4)cc3)[nH]c12` came out at 14.9

Just so you know, measured inhibition for `COc1ccc2nc3cc(Cl)ccc3c(Nc3ccc(O)c(CNC(C)C)c3)c2c1` came out at 2.23

Just so you know, measured inhibition for `N#Cc1ccc(N2CCN(Cc3cccc(-c4cccc(-c5nc6cc(C(F)(F)F)ccc6[nH]5)c4)c3)CC2)nc1` came out at -2.37

Just so you know, measured inhibition for `COc1ccc2nccc([C@@H](O)CN3CCC(NCc4cc5c(Cl)cc(Cl)cc5[nH]4)CC3)c2c1` came out at 1.13

====

target: Hexose transporter 1 (Plasmodium falciparum) (UniProt O97467); assay: ST_JUDE_LEISH: Cytotoxicity at 2uM final concentration against transgenic Leishmania Mexicana promastigotes LmPfHT that are glucose transport deficient and complemented with the Plasmodium falciparum hexose transporter. Activity is measured by DNA content using SYBR green in vitro; format: functional
Overview of reported inhibition across a group of compounds:
The figure you give is taken to be in %; do not add the unit.

These solved cases illustrate the format of a correct answer.
- CCC1(CC)CN(c2ccccc2)c2ccc(O)cc2S(=O)(=O)C1CC(C)C (centres undefined): 0.32
- Cc1ccc(CN2CCC(Oc3cccc(NC(=O)c4ccc(C(F)(F)F)cc4)c3)CC2)cc1: 0.79
- COc1ccc(CCNCC(O)c2cccc(Br)c2)c(Cl)c1OC (centres undefined): -1.73
- CO/C(=C\C=C\c1cc2cc(Cl)c(Cl)cc2[nH]1)C(=O)NCCCN1CCN(Cc2ccccc2)CC1: 0.91
- CCOC(=O)CCc1cc(F)c(F)c(OC[C@H](O)CNC(C)(C)C(O)c2ccc3ccccc3c2)c1 (some centres undefined): 0.61
- CO/C(=C\C=C\c1cc2cc(Cl)c(Cl)cc2[nH]1)C(=O)NCCCN(C)CCN(C)c1ccccc1: 3
- Cc1cc(NC(=O)Nc2ccc(I)c(OCCN(C)C)c2)ccc1Br: 7.25
- Cn1cc(C2CCN(CCCCCNC(=O)/C=C/c3ccc(Cl)c(Cl)c3)CC2)c2cc(O)ccc21: 2.56

// next entry
Just so you know, measured inhibition for `COC(=O)c1cccc(N2CCN(CCCNC(=O)/C(=C/C=C/c3cc4cc(Cl)c(Cl)cc4[nH]3)OC)CC2)c1` came out at 0.95

====

Overview of reported inhibition across a group of compounds:
target: Hexose transporter 1 (Plasmodium falciparum) (UniProt O97467); test: ST_JUDE_LEISH: Cytotoxicity at 2uM final concentration against transgenic Leishmania Mexicana promastigotes LmPfHT that are glucose transport deficient and complemented with the Plasmodium falciparum hexose transporter. Activity is measured by DNA content using SYBR green in vitro; format: functional
The figure you give is taken to be in %; do not add the unit.

These solved cases illustrate the format of a correct answer.
- Nc1nc2c(ncn2OC[C@H](CO)OCP(=O)(O)O)c(=O)[nH]1: -1.69
- CC(C)(C)c1ccc(Cn2c(=N)n(CC(=O)c3ccc(-c4ccccc4)cc3)c3ccccc32)cc1: -0.1
- COc1ccc(S(=O)(=O)N2CCC(NS(=O)(=O)c3ccc(F)cc3)CC2)cc1: 2.07
- Cc1cccc2nc(-c3ccc(-c4cccc(CNCc5ccccc5)c4)s3)[nH]c12: -0.6

Just so you know, measured inhibition for `CN(C)CCCn1c(N)c(-c2nc3ccccc3[nH]2)c2nc(C#N)c(C#N)nc21` came out at 2.05

Just so you know, measured inhibition for `CC(=O)Nc1ccc(OCCN(CC(C)C)c2ccc(C(F)(F)F)c(C#N)c2)c(Cl)c1` came out at 10.4

Just so you know, measured inhibition for O=C(Nc1ccccc1)OCCOc1ccc(CC2SC(=O)NC2=O)cc1 (centres undefined) came out at 3.76

Just so you know, measured inhibition for `O=C(C1CCN(c2nnnn2-c2ccccc2)CC1)N1CCc2ccccc2C1` came out at 15.6

Just so you know, measured inhibition for COc1ccccc1C1CCN(C2CCC(NC(=O)/C=C/c3ccc4c(c3)OC(F)(F)O4)CC2)CC1 (centres undefined) came out at 4.26

====

target: Hexose transporter 1 (Plasmodium falciparum); test: ST_JUDE_LEISH: Cytotoxicity at 2uM final concentration against transgenic Leishmania Mexicana promastigotes LmPfHT that are glucose transport deficient and complemented with the Plasmodium falciparum hexose transporter. Activity is measured by DNA content using SYBR green in vitro; format: functional
measuredMetric: inhibition (%)
The figure you give is taken to be in %; do not add the unit.

These solved cases illustrate the format of a correct answer.
* Cc1cnc(-c2ccc(NC(=O)N3CCc4cc5nccc(N6CCN7CCC[C@H]7C6)c5cc43)c3ccccc23)o1 | 3.79
* Cc1cccc2nc(-c3ccc(-c4ccc(NC(=O)C(C)CN(C)C)cc4)s3)[nH]c12 (centres undefined) | 6.11
* COc1ccc(C(=O)NCC(C)(C)c2nc(-c3ccc(Cl)c(O)c3)c(-c3ccncc3)[nH]2)cc1OCCN(C(C)C)C(C)C | -0.86

Just so you know, measured inhibition for Cc1ccc(NC(=O)NC2CCN(c3ccnc4cc(Cl)ccc34)C2)cc1 (centres undefined) came out at 4.46

====

biological target: Solute carrier family 2, facilitated glucose transporter member 1 (Homo sapiens) (UniProt P11166); assay: ST_JUDE_LEISH: Cytotoxicity at 2uM final concentration against transgenic Leishmania Mexicana promastigotes LmGLUT1 that are glucose transport deficient and complemented with the human glucose transporter GLUT1. Activity is measured by DNA content using SYBR green in vitro; format: functional
measuredMetric: inhibition (%)
The figure you give is taken to be in %; do not add the unit.

- Cc1cnc(NC(=O)c2cn(-c3ccccc3)nc2-c2cccs2)s1: 14.6
- COc1ccc(CNc2nc(NCc3ccc(C(F)(F)F)cc3)c3cc(OC)c(OC)cc3n2)cc1OC: 20.1
- Cc1nn(-c2ccccc2)nc1C(=O)NC1CCN(CCNC(=O)c2ccc(Cl)c(Cl)c2)CC1: 0.92

Just so you know, measured inhibition for `COc1ccc2[nH]cc(C3CCN(CCCCCNC(=O)c4ccc(-c5ccccc5)cc4)CC3)c2c1` came out at 4.24

Just so you know, measured inhibition for `O=C(NC1CCN(CCCc2ccccc2)CC1)c1ccc(-c2cccc(C(F)(F)F)c2)s1` came out at 1.95
